We begin with a simple list: items and their reported Emax.
system: MCF7; assay: Decrease in estrogen receptor alpha level in human MCF7 cells after 4 hrs by in-cell western assay relative to fulvestrant; format: functional; conditions: MCF7, 4 h

[
  {
    "chemicalSmiles": "O=C(O)/C=C/c1ccc(/C(=C(\\c2ncc(C(F)(F)F)cc2Cl)C2CCC2)c2ccc3[nH]nc(F)c3c2)cc1",
    "systemName": "MCF7",
    "Emax (%)": 94
  },
  {
    "chemicalSmiles": "O=C(O)/C=C/c1ccc(/C(=C(\\c2ncc(F)cc2Cl)C2CCC2)c2ccc3[nH]nc(F)c3c2)cc1",
    "systemName": "MCF7",
    "Emax (%)": 89
  },
  {
    "chemicalSmiles": "O=C(O)/C=C/c1ccc(/C(=C(\\c2ncccc2C(F)(F)F)C2CCC2)c2ccc3[nH]nc(F)c3c2)cc1",
    "systemName": "MCF7",
    "Emax (%)": 89
  },
  {
    "chemicalSmiles": "CC/C(=C(/c1ccc(/C=C/C(=O)O)cc1)c1cc(C)c2[nH]ncc2c1)c1ccccc1",
    "systemName": "MCF7",
    "Emax (%)": 89
  },
  {
    "chemicalSmiles": "O=C(O)/C=C/c1ccc(/C(=C(\\c2ccc(C(F)(F)F)cc2Cl)C2CCC2)c2ccc3[nH]nc(F)c3c2)cc1",
    "systemName": "MCF7",
    "Emax (%)": 94
  },
  {
    "chemicalSmiles": "CC/C(=C(/c1ccc(/C=C/C(=O)O)cc1)c1ccc2[nH]ncc2c1C#N)c1ccccc1",
    "systemName": "MCF7",
    "Emax (%)": 91
  },
  {
    "chemicalSmiles": "COc1ccc(/C(=C(\\c2ccc(/C=C/C(=O)O)cc2)c2ccc3[nH]nc(F)c3c2)C2CCC2)c(Cl)c1",
    "systemName": "MCF7",
    "Emax (%)": 93
  }
]
